Please provide measured pIC50 for the entries that follow.
target-desc: HCV polymerase (NS5B570n-Con1) (Hepatitis C virus genotype 1b)
Construct: contains a 21 amino acid deletion at the C-terminus relative to the full-length HCV polymerase; 6-histidine (N)
test-name: HCV NS5B RNA polymerase activity assay
Answers are plain numbers, as −log10 of the molar value.

[[record]]
compound = "COc1cc(CN2CCOC2=O)c(-c2ccc[nH]c2=O)cc1C(C)(C)C"
endpoint_result = 7.25

[[record]]
compound = "COc1cc(C(=O)N(C)C)c(-c2ccc[nH]c2=O)cc1C(C)(C)C"
endpoint_result = 5.77

[[record]]
compound = "COc1cc(CNS(C)(=O)=O)c(-c2ccc[nH]c2=O)cc1C(C)(C)C"
endpoint_result = 7.19


Please look at the items below and tell me pIC50 for each one, in order.
1. COc1cc(CN2C(=O)CC[C@H]2CO)c(-c2ccc[nH]c2=O)cc1C(C)(C)C
2. COc1cc(CN2CCCS2(=O)=O)c(-c2ccc[nH]c2=O)cc1C(C)(C)C
3. COc1cc(CN(CC2CCN(C(C)=O)C2)S(C)(=O)=O)c(-c2ccc[nH]c2=O)cc1C(C)(C)C (stereo not shown)
4. COc1cc(C(=O)N2CC(O)C2)c(-c2ccc[nH]c2=O)cc1C(C)(C)C
5. COc1cc(CN2C(=O)CC(C)(C)CC2=O)c(-c2ccc[nH]c2=O)cc1C(C)(C)C
6. COc1cc(CS(C)(=O)=O)c(-c2ccc[nH]c2=O)cc1C(C)(C)C
7. COc1cc(C(=O)N2CCC(Oc3ccccc3)CC2)c(-c2ccc[nH]c2=O)cc1C(C)(C)C

Output line:
1: 7.11; 2: 7.77; 3: 7.08; 4: 6.68; 5: 7.28; 6: 6.13; 7: 5.88

Consider the following items and state reported pIC50 for each.
1. COc1cc(Cn2c(=O)n(C)c3ccccc32)c(-c2ccc[nH]c2=O)cc1C(C)(C)C
2. COc1cc(CN(C(C)=O)c2ccccc2)c(-c2ccc[nH]c2=O)cc1C(C)(C)C
3. COc1cc(C(=O)N(C)Cc2ccncc2)c(-c2ccc[nH]c2=O)cc1C(C)(C)C

Output line:
[7.47, 6.97, 5.94]

Give pIC50 for each of the items listed below.
1. COc1cc(CN2CCN(C(=O)OC(C)(C)C)S2(=O)=O)c(-c2ccc[nH]c2=O)cc1C(C)(C)C
2. COc1cc(CN(C(C)C)S(C)(=O)=O)c(-c2ccc[nH]c2=O)cc1C(C)(C)C
3. COc1cc(CO)c(-c2ccc[nH]c2=O)cc1C(C)(C)C

Output line:
1. 6.50
2. 7.48
3. 6.00

====

target-desc: HCV polymerase (NS5B570n-Con1) (Hepatitis C virus genotype 1b, UniProt Q9WMX2)
Construct: contains a 21 amino acid deletion at the C-terminus relative to the full-length HCV polymerase; 6-histidine (N)
test-name: HCV NS5B RNA polymerase activity assay
pIC50: −log10 of the molar value.
Label -1 if pIC50 falls below 7; label 1 in every other case.

Worked examples, 3 compounds total:
[[record]]
compound = "COCCN1CCN(C(=O)c2cc(OC)c(C(C)(C)C)cc2-c2ccc[nH]c2=O)CC1"
group = -1

[[record]]
compound = "COc1cc(CNS(C)(=O)=O)c(-c2cc(F)c[nH]c2=O)cc1C(C)(C)C"
group = -1

[[record]]
compound = "COc1cc(C(C)N(C)S(C)(=O)=O)c(-c2ccc[nH]c2=O)cc1C(C)(C)C (stereo not shown)"
group = -1


Input line: Reported pIC50 reaches at least 7 for COc1cc(CN2C(=O)CC[C@@H]2C(=O)O)c(-c2ccc[nH]c2=O)cc1C(C)(C)C ?
Output line: 1

Input line: I'd appreciate it if you could say whether COc1cc(CN(C)S(C)(=O)=O)c(-c2ccc[nH]c2=O)cc1C(C)(C)C has pIC50 at least equal to 7.
Output line: 1

Input line: Kindly determine if pIC50 recorded for CNC(=O)c1cc(OC)c(C(C)(C)C)cc1-c1ccc[nH]c1=O is above or exactly 7.
Output line: -1

Input line: Decide: is the reported value of pIC50 for COc1cc(CNC(=O)[C@H]2CC[C@H](NS(C)(=O)=O)C2)c(-c2ccc[nH]c2=O)cc1C(C)(C)C equal to or greater than 7?
Output line: 1

Input line: pIC50 >= 7 for COc1cc(CN(CCOC(C)=O)S(C)(=O)=O)c(-c2ccc[nH]c2=O)cc1C(C)(C)C ?
Output line: 1

Input line: Threshold query (pIC50 >= 7) on COc1cc(CCNS(C)(=O)=O)c(-c2ccc[nH]c2=O)cc1C(C)(C)C
Output line: -1

Input line: I'd appreciate it if you could say whether COCCN(C)C(=O)c1cc(OC)c(C(C)(C)C)cc1-c1ccc[nH]c1=O has pIC50 at least equal to 7.
Output line: -1

Input line: Decide: is the reported value of pIC50 for COc1cc(CNC(=O)c2ccc(O)cc2)c(-c2ccc[nH]c2=O)cc1C(C)(C)C equal to or greater than 7?
Output line: 1

====

parameter: melting point

Sample answers from the record:
[[record]]
molecule = "COc1cc(CN2C(=O)c3ccccc3C2=O)c(-c2ccc[nH]c2=O)cc1C(C)(C)C"
parameter = "melting point"
endpoint_result = "277 to 280 °C"

[[record]]
molecule = "COc1cc(CN(C2CCNCC2)S(C)(=O)=O)c(-c2ccc[nH]c2=O)cc1C(C)(C)C"
parameter = "melting point"
endpoint_result = "205 to 208 °C"

[[record]]
molecule = "COc1cc(C(C)N(C)S(C)(=O)=O)c(-c2ccc[nH]c2=O)cc1C(C)(C)C (centres unmarked)"
parameter = "melting point"
endpoint_result = "205 to 207 °C"


Provide reported melting point for each item, in the same order as listed.
1. COc1cc(CN(C)C(=O)c2ccccc2)c(-c2ccc[nH]c2=O)cc1C(C)(C)C
2. COc1cc(CNC(=O)c2ccc(NS(C)(=O)=O)cc2)c(-c2ccc[nH]c2=O)cc1C(C)(C)C
3. COCCN(C)C(=O)c1cc(OC)c(C(C)(C)C)cc1-c1ccc[nH]c1=O
4. COc1cc(CNS(=O)(=O)Cc2ccccc2)c(-c2ccc[nH]c2=O)cc1C(C)(C)C
5. COc1cc(Cn2c(=O)n(C)c3ccccc32)c(-c2ccc[nH]c2=O)cc1C(C)(C)C

Output line:
236.2 to 238 °C
175 to 180 °C
160 to 162 °C
249 to 250 °C
140 to 142 °C

====

Give measured pIC50 for each item. Keep answers brief.
target-desc: HCV polymerase (NS5B570n-Con1) (Hepatitis C virus genotype 1b, UniProt Q9WMX2)
Construct: contains a 21 amino acid deletion at the C-terminus relative to the full-length HCV polymerase; 6-histidine (N)
test-name: HCV NS5B RNA polymerase activity assay
Answers are plain numbers, as −log10 of the molar value.

[[record]]
compound = "COc1cc(CC(=O)O)c(-c2ccc[nH]c2=O)cc1C(C)(C)C"
endpoint_result = 6.81

[[record]]
compound = "COc1cc(CNS(=O)(=O)Cc2ccccc2)c(-c2ccc[nH]c2=O)cc1C(C)(C)C"
endpoint_result = 6.68

[[record]]
compound = "COc1cc(CN2C(=O)CCC2=O)c(-c2ccc[nH]c2=O)cc1C(C)(C)C"
endpoint_result = 7.17

[[record]]
compound = "COc1cc(C(=O)N2CCC(CO)C2)c(-c2ccc[nH]c2=O)cc1C(C)(C)C (centres unmarked)"
endpoint_result = 5.79

[[record]]
compound = "COc1cc(CNC(=O)C2CCCC(NS(C)(=O)=O)C2)c(-c2ccc[nH]c2=O)cc1C(C)(C)C (centres unmarked)"
endpoint_result = 7.52


I have 3 compounds here; please give me pIC50 for each one.
1. CCOC(=O)c1cc(OC)c(C(C)(C)C)cc1-c1ccc[nH]c1=O
2. COc1cc(CN(C2CCNCC2)S(C)(=O)=O)c(-c2ccc[nH]c2=O)cc1C(C)(C)C
3. COc1cc(CN2Cc3ccc(NS(C)(=O)=O)cc3C2=O)c(-c2ccc[nH]c2=O)cc1C(C)(C)C

Output line:
[7.41, 7.24, 8.10]

====

Please respond with reported melting point for every item in the list.

Here are 2 compounds together with their reported answers.
[[record]]
compound = "COc1cc(CN2C(=O)CC(C)(C)CC2=O)c(-c2ccc[nH]c2=O)cc1C(C)(C)C [Compound I-88]"
endpoint_result = "> 300 °C"

[[record]]
compound = "COc1cc(CN2CCCCS2(=O)=O)c(-c2ccc[nH]c2=O)cc1C(C)(C)C [Compound I-16]"
endpoint_result = "225.8 to 226.1 °C"


Hi, could you look up melting point for each item in my list?
1. COc1cc(CN2C(=O)CCC2=O)c(-c2ccc[nH]c2=O)cc1C(C)(C)C [Compound I-29]
2. COCCN1CCN(C(=O)c2cc(OC)c(C(C)(C)C)cc2-c2ccc[nH]c2=O)CC1 [Compound I-67]
3. CC(=O)Nc1ccc(C(C)(C)C)cc1-c1ccc[nH]c1=O [Compound I-8]

Output line:
1: 112.2 to 124.9 °C; 2: 179 to 181 °C; 3: 259 to 260 °C
